experimentalProtocol: in vitro
Assay type: cell-based
Where a SMILES comes first, the peptide text is derived from it. Bridges are numbered along the chain shown (N, C = ends). [ ]: non-standard residue; d: D form. 2Nal = N[C@@H](Cc1ccc2ccccc2c1)C(=O)O; Cit = NC(=O)NCCC[C@H](N)C(=O)O

molecule | CC50 at 48 h (µM)
N=C(N)NCCC[C@H](NC(=O)[C@@H]1CSSC[C@H](NC(=O)[C@H](Cc2ccc3ccccc3c2)NC(=O)[C@H](CCCNC(=N)N)NC(=O)[C@@H](N)CCCNC(=N)N)C(=O)N[C@@H](Cc2ccc(O)cc2)C(=O)N[C@@H](CCCCN)C(=O)N[C@H](CCCCN)C(=O)N2CCC[C@H]2C(=O)N[C@@H](CCCNC(=N)N)C(=O)N[C@@H](CCCNC(N)=O)C(=O)N1)C(N)=O [Example 3] (H-RR[2Nal]CYK[dK]PR[Cit]CR-NH2; disulfide 4-11; N-terminus assumed) | 52

====

experimentalProtocol: in vitro
Type: cell-based
*1 amine or outer side, *2 acyl side, *3 side chain or, on linkers, in order; H or OH if unused. Where a SMILES comes first, the peptide text is derived from it. Bridges are numbered along the chain shown (N, C = ends). [ ]: non-standard residue; d: D form. NHCH2(1,3-C6H4)CH2CO = O=C(Cc1cccc(CN[*:1])c1)[*:2]; 2Nal = N[C@@H](Cc1ccc2ccccc2c1)C(=O)O; Cit = NC(=O)NCCC[C@H](N)C(=O)O
Listed compounds paired with reported CC50 at 48 h
measuredParameter: CC50 at 48 h

compound | measuredParameter | recordedMeasurement
N=C(N)NCCC[C@H](NC(=O)[C@@H]1CSSC[C@H](NC(=O)[C@H](Cc2ccc3ccccc3c2)NC(=O)[C@H](CCCNC(=N)N)NC(=O)[C@@H](N)CCCNC(=N)N)C(=O)N[C@@H](Cc2ccc(O)cc2)C(=O)N[C@@H](CCCNC(N)=O)C(=O)N[C@@H](CCCCN)C(=O)NCc2cccc(c2)CC(=O)N[C@@H](Cc2ccc(O)cc2)C(=O)N[C@@H](CCCNC(=N)N)C(=O)N[C@@H](CCCNC(N)=O)C(=O)N1)C(N)=O [Example 22] (H-RR[2Nal]CY[Cit]K[NHCH2(1,3-C6H4)CH2CO]YR[Cit]CR-NH2; disulfide 4-12) | CC50 at 48 h | 75 µM
N=C(N)NCCC[C@H](NC(=O)[C@@H]1CSSC[C@H](NC(=O)[C@H](Cc2ccc3ccccc3c2)NC(=O)[C@H](CCCNC(=N)N)NC(=O)[C@@H](N)CCCNC(=N)N)C(=O)N[C@@H](Cc2ccc(O)cc2)C(=O)N[C@@H](CCCNC(N)=O)C(=O)N[C@@H](CCCCN)C(=O)N[C@H]2C[C@H]3C(=O)N[C@@H](CC(=O)N[C@@H](Cc4ccc(O)cc4)C(=O)N[C@@H](CCCNC(=N)N)C(=O)N[C@@H](CCCNC(N)=O)C(=O)N1)C(=O)N3C2)C(N)=O | CC50 at 48 h | 82 µM
N=C(N)NCCC[C@H](NC(=O)[C@@H]1CSSC[C@H](NC(=O)[C@H](Cc2ccc3ccccc3c2)NC(=O)[C@H](CCCNC(=N)N)NC(=O)[C@@H](N)CCCNC(=N)N)C(=O)N[C@@H](Cc2ccc(O)cc2)C(=O)N[C@@H](CCCNC(N)=O)C(=O)N[C@@H](CCCCN)C(=O)N2CCC[C@H]2C(=O)N2CCC[C@H]2C(=O)N[C@@H](Cc2ccc(O)cc2)C(=O)N[C@@H](CCCNC(=N)N)C(=O)N[C@@H](CCCNC(N)=O)C(=O)N1)C(N)=O [Example 24] (H-RR[2Nal]CY[Cit]KPPYR[Cit]CR-NH2; disulfide 4-13) | CC50 at 48 h | 67 µM
N=C(N)NCCC[C@@H](N)C(=O)N[C@@H](CCCNC(=N)N)C(=O)N[C@@H](Cc1ccc2ccccc2c1)C(=O)N[C@H]1CSSC[C@@H](C(=O)N[C@@H](CCCNC(=N)N)C(N)=O)NC(=O)[C@H](CCCNC(N)=O)NC(=O)[C@H](CCCNC(=N)N)NC(=O)[C@H](Cc2ccc(O)cc2)NC(=O)[C@@H]2CCCN2C(=O)[C@H]2CCCN2C(=O)[C@H](CCCCN)NC(=O)[C@H](CCCNC(N)=O)NC(=O)[C@H](Cc2ccc(O)cc2)NC1=O [Example 10] (H-[dR]R[2Nal]CY[Cit]K[dP]PYR[Cit]CR-NH2; disulfide 4-13) | CC50 at 48 h | 118 µM
